Origin of measurements: patent US20100003217A1

# Tested on: rat primary hepatocytes
# measurement description: Metabolic disposition of [^14C]-Compound 1 and [^14C]-2′-C-methyl guanosine in rat primary hepatocytes (incubation medium, cellular extracts, nucleotide levels)
# Assay type: in vitro ADME, Sprague Dawley rat
# measurement conditions: rat hepatocytes Rs458; 1 μM [^14C]-2′-C-methyl guanosine; 1 h
# key: entry, value: Major metabolites observed in cellular extracts (% of total radioactivity)
measure: Major metabolites observed in cellular extracts (% of total radioactivity)

{"columns": ["compound", "experimental result"],
 "data": [
  ["C[C@@]1(O)[C@H](O)[C@@H](COP(=O)(O)OP(=O)(O)O)O[C@H]1n1cnc2c(=O)[nH]c(N)nc21 [Compound 6]", "1.50 % of total radioactivity"],
  ["C[C@@]1(O)[C@H](O)[C@@H](CO)O[C@H]1n1cnc2c(=O)[nH]c(N)nc21 [2′-C-methyl guanosine, 9-(2-C-methyl-β-D-ribofuranosyl)guanine, reference compound]", "93.4 % of total radioactivity"],
  ["C[C@@]1(O)[C@H](O)[C@@H](COP(=O)(O)OP(=O)(O)OP(=O)(O)O)O[C@H]1n1cnc2c(=O)[nH]c(N)nc21 [Compound 7]", "4.56 % of total radioactivity"]
]}
